B1: CPEB3 Ribozyme (parent)
chain: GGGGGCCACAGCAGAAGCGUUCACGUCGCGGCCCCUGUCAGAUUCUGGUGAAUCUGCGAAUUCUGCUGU

variants of: B1; experiment: self-cleavage, relative activity (ratio to wild type); higher = more cleavage; co-transcriptional
Binary classification by self-cleavage, with 0.3 as an inclusive lower bound for 1; all other cases are 0.

• U46A U62G = 1

Please indicate if the recorded self-cleavage for C18A U55A meets or exceeds 0.3. 0
